Listed here: items and their measured pKd.
# assay system: T1, Dimeric human CD48-mFc (human)
# T1 chain: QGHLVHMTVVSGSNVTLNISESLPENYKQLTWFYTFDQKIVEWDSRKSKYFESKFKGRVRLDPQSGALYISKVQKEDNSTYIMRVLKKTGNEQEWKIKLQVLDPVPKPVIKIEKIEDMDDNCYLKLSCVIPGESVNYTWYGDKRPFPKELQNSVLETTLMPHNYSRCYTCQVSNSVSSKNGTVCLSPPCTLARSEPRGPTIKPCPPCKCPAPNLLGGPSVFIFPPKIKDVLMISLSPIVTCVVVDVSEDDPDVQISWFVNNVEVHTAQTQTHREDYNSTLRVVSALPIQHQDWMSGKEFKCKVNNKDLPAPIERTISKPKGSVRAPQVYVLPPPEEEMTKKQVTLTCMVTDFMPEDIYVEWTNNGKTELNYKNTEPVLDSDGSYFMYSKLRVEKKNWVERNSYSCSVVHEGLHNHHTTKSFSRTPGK
# experiment: SPR (Biacore T100), 25 C, antibody captured by anti-Fc, dimeric CD48-mFc in solution
A value of pKd is the negative decimal logarithm of a concentration given in moles per litre.

H4H1774P (antibody, human IgG4, V domains shown, Human IgG4 Fc (prefix H4H)) VH: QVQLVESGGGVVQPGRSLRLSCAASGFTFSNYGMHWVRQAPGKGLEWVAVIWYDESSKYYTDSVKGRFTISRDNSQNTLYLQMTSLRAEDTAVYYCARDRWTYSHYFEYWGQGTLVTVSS VL: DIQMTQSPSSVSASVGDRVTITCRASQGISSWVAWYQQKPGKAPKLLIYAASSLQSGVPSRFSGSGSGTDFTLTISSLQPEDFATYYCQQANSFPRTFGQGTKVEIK ... 10.83

Q: For the binder H4H1781P (antibody, human IgG4, V domains shown, Human IgG4 Fc (prefix H4H)) VH: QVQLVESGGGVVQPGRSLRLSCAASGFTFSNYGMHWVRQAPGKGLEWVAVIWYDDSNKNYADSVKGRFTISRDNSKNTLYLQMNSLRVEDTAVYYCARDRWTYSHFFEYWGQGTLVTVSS VL: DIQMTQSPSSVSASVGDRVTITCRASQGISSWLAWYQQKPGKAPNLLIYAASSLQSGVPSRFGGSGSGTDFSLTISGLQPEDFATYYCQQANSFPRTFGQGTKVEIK , report pKd.
Result: 10.84

Q: Tell me measured pKd for H4H1763N (antibody, human IgG4, V domains shown, Human IgG4 Fc (prefix H4H)) VH: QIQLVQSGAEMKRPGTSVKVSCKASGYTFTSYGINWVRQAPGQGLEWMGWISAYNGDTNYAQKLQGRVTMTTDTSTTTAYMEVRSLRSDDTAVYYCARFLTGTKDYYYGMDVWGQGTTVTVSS VL: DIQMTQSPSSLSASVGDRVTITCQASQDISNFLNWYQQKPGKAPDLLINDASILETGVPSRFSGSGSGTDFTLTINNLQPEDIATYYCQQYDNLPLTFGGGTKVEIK please.
Result: 10.57
